Catalogue of EC50 readings, one per entry.
biological target: Phosphatidylinositol 4,5-bisphosphate 3-kinase catalytic subunit beta isoform (Homo sapiens, UniProt P42338); experiment: Inhibition of PI3Kbeta in PTEN-deficient human LNCAP cells assessed as reduction in AKT phosphorylation at Ser473 residue after 2 hrs by mesoscale assay; assay type: cell-based
Sequence (P42338 whole entry, canonical isoform): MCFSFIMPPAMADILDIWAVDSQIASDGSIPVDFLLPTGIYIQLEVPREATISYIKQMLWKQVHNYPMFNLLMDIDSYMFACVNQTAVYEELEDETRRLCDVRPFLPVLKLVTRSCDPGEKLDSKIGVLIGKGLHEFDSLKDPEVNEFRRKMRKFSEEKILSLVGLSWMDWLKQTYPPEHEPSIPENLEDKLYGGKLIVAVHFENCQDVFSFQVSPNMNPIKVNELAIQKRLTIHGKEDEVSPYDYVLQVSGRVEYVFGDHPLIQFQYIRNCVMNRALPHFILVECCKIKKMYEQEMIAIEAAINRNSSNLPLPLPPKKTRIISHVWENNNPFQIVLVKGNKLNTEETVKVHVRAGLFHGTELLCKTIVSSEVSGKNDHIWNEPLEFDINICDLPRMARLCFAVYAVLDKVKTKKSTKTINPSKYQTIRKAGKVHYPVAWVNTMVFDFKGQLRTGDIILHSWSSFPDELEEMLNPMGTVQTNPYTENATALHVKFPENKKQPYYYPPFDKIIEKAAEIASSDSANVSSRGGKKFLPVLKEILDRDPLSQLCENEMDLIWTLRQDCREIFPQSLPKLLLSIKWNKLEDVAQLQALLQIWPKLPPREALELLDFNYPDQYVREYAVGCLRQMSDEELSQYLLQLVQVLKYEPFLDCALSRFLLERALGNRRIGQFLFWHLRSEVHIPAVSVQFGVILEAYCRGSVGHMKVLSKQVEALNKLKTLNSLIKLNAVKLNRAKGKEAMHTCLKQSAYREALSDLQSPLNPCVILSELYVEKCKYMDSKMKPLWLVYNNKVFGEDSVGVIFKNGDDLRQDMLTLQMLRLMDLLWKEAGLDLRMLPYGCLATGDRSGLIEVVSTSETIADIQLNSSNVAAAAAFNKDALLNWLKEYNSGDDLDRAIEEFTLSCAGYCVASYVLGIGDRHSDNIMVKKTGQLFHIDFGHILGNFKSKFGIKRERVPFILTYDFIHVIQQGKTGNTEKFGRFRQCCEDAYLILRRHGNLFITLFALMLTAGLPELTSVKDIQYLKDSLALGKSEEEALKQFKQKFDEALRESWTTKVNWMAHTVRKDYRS
endpoint.label: EC50 (µM)

>>> observed_result("Cc1nc2c(-c3nnc[nH]3)cc(-c3ccnc(C#N)c3)cc2n1-c1ccnc2c(F)ccc(F)c12")
0.031
>>> observed_result("Cc1nc2c(-c3nnc[nH]3)cc(-c3ccnc(N)c3F)cc2n1-c1ccnc2c(F)ccc(F)c12")
0.053

---

experiment: Oral bioavailability in Sprague-Dawley rat at 5 mg/kg dosed via gavage after 24 hrs by ESI-LC/MS/MS analysis; format: ADME, organism-based; conditions: in vivo
Reported bioavailability is given for each of the following molecules.
endpoint.label: bioavailability (%)

>>> observed_result("Cc1nc2c(-c3nnc[nH]3)cc(-c3ccnc(C#N)c3)cc2n1-c1ccnc2c(F)ccc(F)c12")
53
>>> observed_result("Cc1nc2c(-c3nnc[nH]3)cc(-c3ccnc(N)c3F)cc2n1-c1ccnc2c(F)ccc(F)c12")
60

---

assay: Terminal half life in rhesus monkey at 1 mg/kg administered as iv infusion for 30 mins and measured after 24 hrs by ESI-LC/MS/MS analysis; assay type: ADME, organism-based, Macaca mulatta; settings: in vivo, read-out: beta t1/2 (converted)
endpoint.label: half-life (h)

>>> observed_result("Cc1nc2c(-c3nnc[nH]3)cc(-c3ccnc(C#N)c3)cc2n1-c1ccnc2c(F)ccc(F)c12")
4.4

---

biological target: PI3K p110 beta/p85 alpha (Homo sapiens, UniProt P42338); assay: Inhibition of recombinant human full-length N-terminal His6-tagged p110beta/human recombinant full-length untagged p85alpha expressed in baculovirus infected Sf21 insect cells using PIP2 as substrate after 30 mins in presence of ATP at 2xKm concentration by TR-FRET assay
Sequence (P27986 whole entry, one chain of several): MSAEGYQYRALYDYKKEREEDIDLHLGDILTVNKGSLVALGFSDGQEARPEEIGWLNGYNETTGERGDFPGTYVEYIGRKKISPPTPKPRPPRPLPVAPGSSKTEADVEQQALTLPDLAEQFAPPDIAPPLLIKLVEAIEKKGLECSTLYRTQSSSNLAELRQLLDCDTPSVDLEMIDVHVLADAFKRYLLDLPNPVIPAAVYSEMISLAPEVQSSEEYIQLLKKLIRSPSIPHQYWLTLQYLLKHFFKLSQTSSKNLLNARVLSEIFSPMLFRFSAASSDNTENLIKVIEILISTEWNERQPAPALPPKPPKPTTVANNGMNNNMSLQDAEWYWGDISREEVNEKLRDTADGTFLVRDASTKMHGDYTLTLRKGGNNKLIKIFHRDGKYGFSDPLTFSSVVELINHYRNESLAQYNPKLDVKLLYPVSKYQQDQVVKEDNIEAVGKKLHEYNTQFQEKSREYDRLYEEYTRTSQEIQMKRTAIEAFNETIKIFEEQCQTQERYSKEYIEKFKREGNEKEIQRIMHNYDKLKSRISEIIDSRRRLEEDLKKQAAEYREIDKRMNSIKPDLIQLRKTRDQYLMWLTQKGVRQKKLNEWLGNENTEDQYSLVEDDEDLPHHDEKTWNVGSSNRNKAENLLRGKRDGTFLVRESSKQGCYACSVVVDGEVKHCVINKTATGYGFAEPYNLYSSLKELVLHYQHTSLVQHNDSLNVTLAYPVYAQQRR
endpoint.label: IC50 (nM)

>>> observed_result("Cc1c(-c2cc(-c3nnc[nH]3)c3nc(C)n(-c4ccnc5c(F)ccc(F)c45)c3c2)ccnc1N")
2860

---

assay: MRT in Sprague-Dawley rat at 1 mg/kg administered as iv infusion for 30 mins and measured after 24 hrs by ESI-LC/MS/MS analysis; assay type: ADME, organism-based; settings: in vivo
endpoint.label: MRT (h)

>>> observed_result("Cc1nc2c(-c3nnc[nH]3)cc(-c3ccnc(C#N)c3)cc2n1-c1ccnc2c(F)ccc(F)c12")
1.3

---

Measured IC50 (UniProt:Q12809)
Sequence (Q12809 whole entry): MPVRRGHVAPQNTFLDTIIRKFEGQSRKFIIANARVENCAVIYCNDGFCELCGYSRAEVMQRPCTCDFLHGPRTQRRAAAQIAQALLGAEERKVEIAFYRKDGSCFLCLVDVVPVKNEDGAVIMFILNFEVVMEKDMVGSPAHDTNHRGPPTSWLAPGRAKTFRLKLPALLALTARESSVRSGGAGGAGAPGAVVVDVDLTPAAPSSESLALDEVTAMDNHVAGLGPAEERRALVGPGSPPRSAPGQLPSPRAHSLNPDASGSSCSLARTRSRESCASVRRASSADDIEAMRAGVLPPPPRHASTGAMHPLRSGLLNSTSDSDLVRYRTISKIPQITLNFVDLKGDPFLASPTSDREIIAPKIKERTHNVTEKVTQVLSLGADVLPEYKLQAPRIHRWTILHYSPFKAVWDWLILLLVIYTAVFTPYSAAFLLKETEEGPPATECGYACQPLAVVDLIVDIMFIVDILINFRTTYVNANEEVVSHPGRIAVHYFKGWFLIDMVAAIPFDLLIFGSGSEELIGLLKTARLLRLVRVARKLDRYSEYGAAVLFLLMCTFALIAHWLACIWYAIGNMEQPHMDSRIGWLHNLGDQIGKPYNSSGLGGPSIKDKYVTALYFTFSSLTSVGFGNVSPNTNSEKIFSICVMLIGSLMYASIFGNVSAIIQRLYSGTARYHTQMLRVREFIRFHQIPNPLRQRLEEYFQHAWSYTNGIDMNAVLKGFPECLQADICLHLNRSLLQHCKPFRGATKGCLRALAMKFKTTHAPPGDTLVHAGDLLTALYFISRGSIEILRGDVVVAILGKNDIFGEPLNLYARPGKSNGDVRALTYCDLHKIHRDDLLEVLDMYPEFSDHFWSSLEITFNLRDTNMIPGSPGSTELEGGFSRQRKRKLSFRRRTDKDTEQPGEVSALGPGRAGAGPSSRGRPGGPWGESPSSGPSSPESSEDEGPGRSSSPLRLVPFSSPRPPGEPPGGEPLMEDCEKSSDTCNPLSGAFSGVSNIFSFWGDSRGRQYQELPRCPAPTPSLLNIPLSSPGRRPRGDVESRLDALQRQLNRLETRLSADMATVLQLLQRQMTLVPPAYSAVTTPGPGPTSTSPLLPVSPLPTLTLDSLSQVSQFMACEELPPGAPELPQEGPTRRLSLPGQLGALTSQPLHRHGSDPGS
endpoint.label: IC50

>>> observed_result("Cc1nc2c(-c3nnc[nH]3)cc(-c3ccnc(N)c3F)cc2n1-c1ccnc2c(F)ccc(F)c12")
"> 25 µM"
>>> observed_result("Cc1nc2c(-c3nnc[nH]3)cc(-c3ccnc(C#N)c3)cc2n1-c1ccnc2c(F)ccc(F)c12")
"> 25 µM"

---

Vd values for the molecules below.
test: Volume of distribution at steady state in rhesus monkey at 1 mg/kg administered as iv infusion for 30 mins and measured after 24 hrs by ESI-LC/MS/MS analysis; type: ADME, organism-based, Macaca mulatta; settings: in vivo, read-out: Vdss
endpoint.label: Vd (L/kg)

>>> observed_result("Cc1nc2c(-c3nnc[nH]3)cc(-c3ccnc(C#N)c3)cc2n1-c1ccnc2c(F)ccc(F)c12")
2.6
>>> observed_result("Cc1nc2c(-c3nnc[nH]3)cc(-c3ccnc(N)c3F)cc2n1-c1ccnc2c(F)ccc(F)c12")
0.6

Data origin: ChEMBL document CHEMBL4616704
